# Test system: Inhibin beta A chain (activin A)
# Experimental Details: INHBA (activin A) binders on microarrays, primary screen, biochemical, small-molecule microarray, 635 nm fluorescence scan (AID 1107);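 also: mouse activin A protein probed at 4.33 µg/mL on printed slides; score merges bound-protein fluorescence near 667 nm with spot signal-to-noise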
# Conditions Used: small-molecule microarray binding, higher = more signal
Assign yes to entries whose composite z-score meets or exceeds 0.6; assign no to the rest.

Query: // inclusive: composite z-score at least 0.6? input: COc1ccc(NN2C(C(O)c3ccccn3)C=CC3C(=O)N(C4CCCCC4)C(=O)C32)cc1 (stereo unspecified)
Response: yes

Query: Then CN1C(=O)C2C=CC(C(O)c3c(F)cccc3Cl)N(Nc3ccccc3)C2C1=O (stereo unspecified) ?
Response: yes

Query: Another compound to look at: "COc1cc2c(cc1OC)CN(C(=O)[C@H]1[C@@H]3C(=O)O[C@@H](c4ccccc4)[C@@H](c4ccccc4)N3[C@@H](c3ccc(OCCO)cc3)[C@]13C(=O)Nc1ccc(C#CCCO)cc13)CC2"
Response: yes

Query: Note, next up: "COc1ccc([Si](C)(C)[C@H]2[C@H](CCO)O[C@@]3(C(=O)N(Cc4cccc(N5CCCCC5=O)c4)c4ccccc43)[C@@H]2C)cc1"
Response: yes

Query: Same thing, different compound: "COCCOC(=O)N1C(=O)[C@@]2(c3ccccc31)[C@H](C(=O)N1CCN(c3ncccn3)CC1)[C@H]1C(=O)O[C@H](c3ccccc3)[C@H](c3ccccc3)N1[C@@H]2c1ccc(OCCO)cc1"
Response: no

Query: Could you do the same for "CC(C)CN1C(=O)[C@@]2(c3ccc([N+](=O)[O-])cc3)CC(=O)N(CC34CC5CC(CC(C5)C3)C4)[C@@H]2c2ccc(CO)cc21" , please?
Response: no

###

# Experimental Details: P. aeruginosa biofilm formation inhibitors, primary screen, PAO1 strain, BacTiter-Glo luminescence, LB-PBS (AID 1144)
# Conditions Used: 12 h, higher = more signal
Active and inactive are the calls of the source. No rule for the calls is given here.
So I've got a bunch of molecules here, and I need their z-score values.

Query: Given "Cc1ccc(F)cc1S(=O)(=O)N[C@@H]1CCN(Cc2ccc(OC(C)C)cc2)C1" , state its recorded z-score.
Response: 0.816 (inactive)

Query: Can you handle "O=C(NC1CC1)[C@@H]1c2ccccc2C(=O)N(Cc2ccccc2)[C@H]1c1ccc(CO)cc1" next?
Response: -0.55 (inactive)

Query: How about this molecule: "CCC[C@@H]1C[C@@]1(CCC)[C@@H](NP(=O)(c1ccccc1)c1ccccc1)c1ccc(Cl)cc1"
Response: 0.22 (inactive)

Query: Same question, "COCC(=C=CC[C@H](O)c1cccc(OCCO)c1)C[C@H](O)c1ccccn1" this time
Response: -0.368 (inactive)

Query: Item: "NC(N)=NCc1cn(CCc2c[nH]c3ccccc23)nn1"
Response: 0.845 (inactive)

Query: Similarly, "COc1ccc([Si](C)(C)[C@@H]2[C@@H](CCn3cc([C@H](O)c4ccccc4)nn3)O[C@]3(C(=O)N(Cc4ccc(N5CCOC5=O)cc4)c4ccccc43)[C@H]2C)cc1" ?
Response: -0.41 (inactive)

###

Give measured composite z-score for each item. Keep answers brief.
# Experimental Details: small-molecule binders of probe aNOTCH2, primary screen, biochemical, small-molecule microarray, 635/667 nm fluorescence (AID 1121);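 also: score merges feature fluorescence read at 667 nm with its signal to noise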
# Conditions Used: higher = more signal
The response must contain the number and no unit.

Query: Could you share which composite z-score value was measured for "CC(C)C(=C=CC[C@@H](O)c1ccccc1OCCO)C[C@@H](O)COCc1ccccc1" ?
Response: 0.0363

Query: Next entry: "COCCCNC(=O)[C@@H]1c2ccccc2C(=O)N(Cc2ccccc2C(F)(F)F)[C@H]1c1ccc(CO)cc1"
Response: -0.131

Query: And the next one, "C=CCOC(=O)[C@H]1[C@@H]2C(=O)O[C@@H](c3ccccc3)[C@@H](c3ccccc3)N2[C@@H](c2ccc(OCCOC(=O)[C@H]3C[C@H]4C(=O)N[C@@H](Cc5ccccc5)C(=O)N4[C@H]3c3cccc(OCCO)c3)cc2)[C@]12C(=O)Nc1ccc(I)cc12" ?
Response: -0.117

Query: Try this compound too: C=CCC(OC(C)=O)[C@@H]1[C@@H](N(Cc2cc3ccccc3o2)C(=O)c2ccc(C)cc2)c2cc(OCCCO)ccc2N1C(=O)Cc1ccc2ccccc2c1 (stereo partly drawn)
Response: -0.0077

Query: Also "CCOC(=O)C1=CC[C@@H](c2ccccc2C(F)(F)F)N(S(=O)(=O)c2ccc(C)cc2)C1" , if possible.
Response: 0.311

Query: How about this compound: "CC(C)C(=C=CC[C@H](O)c1ccc(OCCO)cc1)C[C@H](O)c1cc(Cl)cc(Cl)c1O"
Response: -0.0533

Query: Same again, this time with "CN(C)CCCNC(=O)[C@@]1(c2ccc([N+](=O)[O-])cc2)CC(=O)N(CC23CC4CC(CC(C4)C2)C3)[C@@H]1c1ccc(CO)cc1"
Response: 0.094

Query: Next up: "Cc1ccc(F)cc1S(=O)(=O)N[C@@H]1CCN(Cc2ccc(OC(C)C)cc2)C1"
Response: -0.154

###

# Tested on: Noggin (protein binding on small-molecule microarray)
# Experimental Details: Noggin binders on small-molecule microarray, primary screen, biochemical, 635/667 nm fluorescence (AID 1095);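 also: score merges 667 nm feature fluorescence with signal to noise over triplicate slides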
# Conditions Used: 635 nm fluorescence, higher = more signal
# composite z-score >= -0.08 gives met, anything below gives not met

Query: Identify whether the reported composite z-score of the following compound is -0.08 or greater: "C[C@]1(C(=O)NC2CC2)c2ccccc2C(=O)N(Cc2ccc(OC(F)(F)F)cc2)[C@H]1c1ccc(CO)cc1"
Response: not met

Query: Next: "CCOC(=O)C[C@H]1[C@H](OC(=O)c2ccc(-c3ccccc3)cc2)[C@@H](NC(=O)C2CCCCC2)c2cc(OCCCO)ccc2N1C(=O)c1ccccc1"
Response: met

Query: Do the same for CCN(CC)c1ccc(N2CC=CC34O[C@@H]5/C=C\CCC(C)OC(=O)C5[C@H]3C(=O)N(CCO)[C@@H]4C2=O)cc1 (stereo partly specified) please
Response: not met

Query: Again, but for "COC(=O)[C@@]1(Cc2ccc(OC)cc2)[C@H]2c3cc(C(=O)N(C)C)n(Cc4ccccc4)c3C[C@H]2CN1C(=O)c1ccccc1"
Response: met

Query: Same thing, different compound: "C=C(CCCC)C(=O)CC[C@@H](OC(=O)c1cccnc1)c1ccccc1OCCO"
Response: met

Query: Same question, "CCOC(=O)C[C@H]1[C@H](OC(=O)c2ccccc2-c2ccccc2)[C@@H](NC(=O)CC(C)C)c2cc(OCCCO)ccc2N1C(=O)c1ccc2ccccc2n1" this time
Response: met

Query: Now the compound "C=CC[C@@]1(C(=O)N2CCCCC2)N=C(c2ccc(OCCCO)cc2)O[C@@H]1c1ccccc1"
Response: met

Query: Again, but for "CN(C)CCCCNC(=O)[C@H]1C[C@H]2C(=O)N[C@@H](CCCCN(C)C)C(=O)N2[C@H]1c1cccc(OCCO)c1"
Response: met

Query: Also, "COc1ccc([Si](C)(C)[C@H]2[C@H](CC(=O)N3Cc4ccccc4C[C@H]3CO)O[C@@]3(C(=O)N(Cc4cccc(N5CCCCC5=O)c4)c4ccccc43)[C@@H]2C)cc1" please.
Response: met

Query: Then what about the compound "CC(C)NC(=O)[C@@]1(C)c2ccccc2C(=O)N(C(C)C)[C@H]1c1ccc(CO)cc1" ?
Response: not met

Query: One more compound: "C=CC[C@H](OC(=O)Nc1ccc(OC)cc1)c1ccc(O)c2ccccc12"
Response: met

Query: Further, for "CC(C)CNC(=O)[C@@H]1c2ccccc2C(=O)N(Cc2cc(F)cc(C(F)(F)F)c2)[C@H]1c1ccc(CO)cc1" ?
Response: met

Query: Same for CC(C)C(O)C1C=CC2C(=O)N(C)C(=O)C2N1N(c1ccccc1)c1ccccc1 (stereo unspecified)
Response: not met

Query: What do you get for CC=CC(O)C1C=CC2C(=O)N(C)C(=O)C2N1N1CCCCC1 (stereo unspecified) ?
Response: met

Query: Consider next the compound "C=C(C(=O)CC[C@H](OC(C)=O)c1cccc(OCCO)c1)C(C)C" in the same way.
Response: not met

###

# Experimental Details: yeast growth modulation, basal conditions, primary screen, YJM789 clinical isolate, OD600, 24 h (AID 1089);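 also: growth of clinical yeast isolate S. cerevisiae YJM 789 seeded 1000 cells per well; test concentration not given here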
# Conditions Used: S. cerevisiae YJM789 growth, called active from +8 up or from −8 down
Active and inactive are the calls of the source.
Output constraint: value belongs to active, inactive

Query: Dear colleague, could you share the recorded outcome for "Cc1ccc(S[C@]2(C(=O)NCCN3CCOCC3)CC(=O)N(Cc3ccccc3C(F)(F)F)[C@@H]2c2ccc(CO)cc2I)cc1" when you have a moment?
Response: inactive

Query: Next compound: "CCCC[C@@H]1C[C@H]1[C@@H](NC(=O)c1cccnc1)c1ccc(-c2ccccc2)cc1"
Response: inactive

Query: Subsequent entry: O=C1NC(=O)C2C1C=CC(C(O)c1cc(C(F)(F)F)cc(C(F)(F)F)c1)N2Nc1ccc(Cl)cc1Cl (centres undefined)
Response: inactive

Query: // same read-out, input: "CON(C)C(=O)C=C1C[C@@H](c2cccc(Cl)c2)O[C@@H](c2cccc(Cl)c2)O1"
Response: inactive

Query: What do we get for CC[C@H]1C2=C3C(CC[C@H]4C(OCc5ccc(F)cc5C(F)(F)F)OC[C@](C)([C@@H]34)N(C(=O)OC(C)(C)C)C2)C2COC(=O)OCC21 (some centres undefined) ?
Response: inactive

Query: What do we get for CN1C2C=C(CCCO)C(C3C(=O)N(C(N)=O)C(=O)C32)C1c1cccs1 (centres undefined) ?
Response: inactive

Query: Next compound: "COc1ccc([Si](C)(C)[C@@H]2[C@@H](CCO)O[C@]3(C(=O)N(Cc4cccc(N5C(=O)c6ccccc6Oc6ccccc65)c4)c4ccccc43)[C@H]2C)cc1"
Response: inactive

Query: Entry C=CC1c2cc(O)c(OC)cc2CCN1Cc1sc2ccccc2c1Cl (centres undefined) please
Response: inactive

Query: Next entry: "[N-]=[N+]=Nc1ccccc1[C@H]1OC(c2ccc(OCCCO)cc2)=N[C@@]1(CCS(=O)(=O)c1ccccc1)C(=O)N1CCCCC1"
Response: inactive

Query: Subsequent entry: "C[C@]1(C(=O)NCCN2CCOCC2)c2ccccc2C(=O)N(Cc2ccc(OC(F)(F)F)cc2)[C@H]1c1ccc(CO)cc1"
Response: inactive

Query: Same read-out for "COc1ccc([Si](C)(C)[C@@H]2[C@@H](CCO)O[C@]3(C(=O)N(Cc4cccc(N5C(=O)c6cccc7cccc5c67)c4)c4ccccc43)[C@H]2C)cc1" ?
Response: inactive

Query: Same for "CC(C)(C)OC(=O)CC[C@@]1(C(=O)O)N=C(c2ccc(OCCCO)cc2)O[C@@H]1c1ccccc1CN=[N+]=[N-]"
Response: inactive

Query: Do the same for "CCCNC(=O)[C@@]1(c2ccc([N+](=O)[O-])cc2)CC(=O)N(C2CCCCC2)[C@@H]1c1ccc(CO)cc1I" please
Response: inactive

Query: Now consider "CN(C)CCCNC(=O)[C@@H]1c2ccccc2C(=O)N(CC23CC4CC(CC(C4)C2)C3)[C@H]1c1ccc(CO)cc1" and answer again.
Response: inactive

Query: Cool, now "CC(=O)NCCCC[C@@H]1NC(=O)[C@@H]2C[C@H](C(=O)O)[C@H](c3ccc(O)cc3)N2C1=O"
Response: inactive

Query: # repeat for "CCOC(=O)C[C@H]1[C@H](OC(=O)c2ccc(-c3ccccc3)cc2)[C@@H](NC(=O)c2ccc3ccccc3n2)c2cc(OCCCO)ccc2N1C(=O)c1ccccc1"
Response: inactive

Query: How about this compound: "COCCOC(=O)N1C(=O)[C@@]2(c3cc(C#CC4(O)CCCCCC4)ccc31)[C@H](C(N)=O)[C@H]1C(=O)O[C@H](c3ccccc3)[C@H](c3ccccc3)N1[C@@H]2c1ccc(O)cc1"
Response: inactive

Query: What do you have for "C[N+](C)(C)CCCC[C@@H]1NC(=O)[C@@H]2C[C@H](C(=O)O)[C@H](c3ccc(O)cc3)N2C1=O" ?
Response: inactive

Query: // same read-out, input: COc1ccc(NN2C(C(O)c3ccccn3)C=CC3C(=O)N(C4CCCCC4)C(=O)C32)cc1 (centres undefined)
Response: inactive

Query: How about "CCCN1C(=O)[C@]2(Cc3ccccc3)N=C(c3ccc(OCCCO)cc3)O[C@@H]2c2ccccc21" ?
Response: inactive

Query: Also check "[N-]=[N+]=Nc1ccccc1[C@@H]1OC(c2ccc(OCCCO)cc2)=N[C@]1(CCS(=O)(=O)c1ccccc1)C(=O)NCCN1CCOCC1"
Response: inactive

Query: Thanks! And "CC(C)CN1C(=O)[C@@]2(c3ccc([N+](=O)[O-])cc3)CC(=O)N(CC34CC5CC(CC(C5)C3)C4)[C@@H]2c2ccc(CO)cc21" ?
Response: inactive

Query: Also, "COc1cc(CO)cc(I)c1O[C@H]1C=C(C(=O)NCCO)C[C@@H](N(CC2CCCCC2)C(=O)c2ccc(C(F)(F)F)cc2)[C@@H]1O" please.
Response: inactive

Query: Try this compound too: "C=C(/C=C/CNS(=O)(=O)c1ccc(C)cc1)[C@H](O)[C@H]1CCCN1S(=O)(=O)c1ccccc1[N+](=O)[O-]"
Response: inactive

Query: Now try CN1C(=O)C2C=CC(C(O)c3c(F)cccc3Cl)N(Nc3ccccc3)C2C1=O (centres undefined) .
Response: inactive

Query: Follow-up item: "Cc1ccc(F)cc1S(=O)(=O)N[C@@H]1CCN(Cc2ccc(Oc3ccccc3)cc2)C1"
Response: active

Query: // same read-out, input: "CCOC(=O)C1=C[C@@H](c2ccccc2)N(S(=O)(=O)c2ccc(C)cc2)[C@H]1c1cccc(Cl)c1"
Response: inactive

Query: Now try "NCCCCCNC(=O)[C@@H]1C[C@@H]2C(=O)N[C@@H](CCCCN)C(=O)N2[C@@H]1c1cccc(OCCO)c1" .
Response: inactive

Query: Now consider "COCCOC(=O)N1C(=O)[C@@]2(c3cc(C#Cc4ccc(OC)cc4)ccc31)[C@H](C(=O)N1CCCCCCC1)[C@H]1C(=O)O[C@H](c3ccccc3)[C@H](c3ccccc3)N1[C@@H]2c1ccc(O)cc1" .
Response: inactive
